Ref: PubChem BioAssay AID652010

# assay-summary: relief of DAX-1 repression of SF-1 activity – cell-based, luminescence, SF-1 (NR5A1), full-length DAX-1, primary screen (AID 652010);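 further: 0% = DAX-1 cells with DMSO and 100% = cells lacking DAX-1 with DMSO; higher inhibition means more luminescence from relief of DAX-1 repression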
# condition-parameters: HEK293T StAR-luciferase reporter, SF-1/DAX-1 repression relief; at 6.8 µM; active compounds read high
About 4,100 (1.1%) of roughly 370,000 compounds were called active. The full list was thinned out, with actives kept by preference.
reported-property: inhibition

# input compound: CC(=O)N1CN2CN(C(C)=O)CC(C(=O)c3ccc(Br)cc3)(C2)C1 ; wanted: its inhibition
0.07% (inactive)

# input compound: COc1ccc2c(c1)NP(=S)(c1ccccc1)N2 (stereo not given) ; wanted: its inhibition
6.3% (active)

# input compound: Cc1c(Oc2cc(NN3CCCCC3)c([N+](=O)[O-])cc2[N+](=O)[O-])cccc1[N+](=O)[O-] ; wanted: its inhibition
0.11% (inactive)

# input compound: COP(=O)(Sc1ccccc1)C(Cc1ccccc1)NC(=O)OCc1ccccc1 (stereo not given) ; wanted: its inhibition
-2.01% (inactive)

# input compound: c1cncc(CNC2=NCCC2)c1 ; wanted: its inhibition
0.16% (inactive)
